// provenance: the RNAGym collection of RNA variant scans (doi:10.7554/elife.80360)

B1: HDV Ribozyme (parent)
chain: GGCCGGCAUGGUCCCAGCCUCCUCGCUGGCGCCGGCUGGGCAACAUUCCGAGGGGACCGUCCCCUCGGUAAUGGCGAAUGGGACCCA

variants of: B1; test: self-cleavage, relative activity (ratio to wild type); higher = more cleavage; co-transcriptional
Rule: self-cleavage of 0.5 or more gives 1; anything lower gives 0.

Problem: Decide: is the reported value of self-cleavage for G11U U37A equal to or greater than 0.5?
Result: 0

Problem: What do you get for U20G C61U ?
Result: 0

Problem: Also G25U C33A , if possible.
Result: 0

Problem: Follow-up item: C18U G34U
Result: 0

Problem: Queued: U47C C85U
Result: 1

Problem: Can you check G59U U79A next?
Result: 1

Problem: What do you have for G5A U46G ?
Result: 0

Problem: Repeat with G80U A83G
Result: 0

Problem: Moving on to C4U G54A
Result: 1

Problem: Lookup C26G A83C
Result: 1

Problem: Try this variant next: C41A C63U
Result: 1

Problem: What do you get for U20C U23A ?
Result: 0

Problem: Next entry: G29U C61G
Result: 0

Problem: Next variant up: G2U G10C
Result: 0

Problem: Next variant up: U12G G67A
Result: 1

Problem: Input C62U G68C
Result: 1

Problem: Next entry: G31C C61U
Result: 0

Problem: Moving on to U72G C86A
Result: 1

Problem: What would you report for A42C A78G ?
Result: 0

Problem: Next variant: C3A G53A
Result: 1

Problem: Cool, now A16C G68C
Result: 1

Problem: Quick one: U60A C66G
Result: 1

Problem: Next up: G1C A8G
Result: 0

Problem: Please give the result for G25C C84U too.
Result: 0

Problem: Okay, and C15A C36G ?
Result: 0

Problem: Record: G10C C24A
Result: 1

Problem: Again, but for G17C G76A
Result: 0

Problem: Then U12G G80A ?
Result: 1

Problem: Proceed to C14A C61G
Result: 1

Problem: Please do the same for G29C U65G as well.
Result: 0

Problem: Would you mind doing G25U A78C as well?
Result: 0

Problem: Now the same for A42U A43G
Result: 0

Problem: Try this variant next: G2U C64U
Result: 0

Problem: Also, G55C A56U please.
Result: 1

Problem: What do you get for G10C U37C ?
Result: 1

Problem: Can you handle C3A C18U next?
Result: 0

Problem: Repeat with C13G G55A
Result: 0

Problem: Input G25U G68A
Result: 0

Problem: Moving on to U12G G74A
Result: 0

Problem: Consider next the variant C30G U65C in the same way.
Result: 0

Problem: Okay, and A8U C66U ?
Result: 1

Problem: Please answer likewise for G17A G52U
Result: 1

Problem: Field entry: G35U G54C
Result: 1

Problem: Also need C4U G81U , thanks.
Result: 0
